Molecular target: Butyrylcholinesterase (BChE) (Equus caballus)
Construct: purchased Sigma c-7512
Assay: biochemical
Details: Table 1; form SALT; ±SEM, n = 5; read-out: IC50 BChE
IC50 strictly under 7 µM means yes (1); at 7 µM or over means no (0).

{"molecule": "COc1ccc2c(c1)CCCc1c-2nc2ccccc2c1N", "class.label": "no (0)"}
{"molecule": "Nc1c2c(nc3ccccc13)-c1ccccc1CCC2", "class.label": "yes (1)"}
{"molecule": "Nc1c2c(nc3ccccc13)-c1ccccc1CC2 [Compound 3, 7 Amino-5,6-dihydro-benz-[c]-acridine]", "class.label": "yes (1)"}
{"molecule": "COc1cccc2c1CCc1c-2nc2ccccc2c1N", "class.label": "yes (1)"}

====

Tested on: 5-HT (serotonin) uptake
Format: biochemical, rat (Sprague Dawley)
Settings: Table 1; form SALT; n = 5; read-out: IC50 5HT UPTAKE
pIC50: −log10 of the molar value.
Please mark True if the recorded pIC50 is equal to or greater than 6, and False if it falls below.

{"molecule": "Nc1c2c(nc3ccccc13)-c1ccccc1CC2 [Compound 3, 7 Amino-5,6-dihydro-benz-[c]-acridine]", "class.label": "False"}
{"molecule": "Nc1c2c(nc3ccccc13)-c1ccccc1C2", "class.label": "False"}
{"molecule": "COc1ccc2c(c1)CCCc1c-2nc2ccccc2c1N", "class.label": "True"}
{"molecule": "Nc1c2c(nc3ccccc13)-c1ccc(Cl)cc1CC2", "class.label": "False"}
{"molecule": "COc1cccc2c1CCc1c-2nc2ccccc2c1N", "class.label": "False"}

====

Molecular target: Acetylcholinesterase (AChE) (Rattus norvegicus, UniProt P37136)
Construct: The brain was removed and homogenised; from tissue; host or cells: rat brain (male Sprague Dawley), Triton X100 detergent supernatant of the EDTA-buffer pellet
Sequence (P37136 32-614): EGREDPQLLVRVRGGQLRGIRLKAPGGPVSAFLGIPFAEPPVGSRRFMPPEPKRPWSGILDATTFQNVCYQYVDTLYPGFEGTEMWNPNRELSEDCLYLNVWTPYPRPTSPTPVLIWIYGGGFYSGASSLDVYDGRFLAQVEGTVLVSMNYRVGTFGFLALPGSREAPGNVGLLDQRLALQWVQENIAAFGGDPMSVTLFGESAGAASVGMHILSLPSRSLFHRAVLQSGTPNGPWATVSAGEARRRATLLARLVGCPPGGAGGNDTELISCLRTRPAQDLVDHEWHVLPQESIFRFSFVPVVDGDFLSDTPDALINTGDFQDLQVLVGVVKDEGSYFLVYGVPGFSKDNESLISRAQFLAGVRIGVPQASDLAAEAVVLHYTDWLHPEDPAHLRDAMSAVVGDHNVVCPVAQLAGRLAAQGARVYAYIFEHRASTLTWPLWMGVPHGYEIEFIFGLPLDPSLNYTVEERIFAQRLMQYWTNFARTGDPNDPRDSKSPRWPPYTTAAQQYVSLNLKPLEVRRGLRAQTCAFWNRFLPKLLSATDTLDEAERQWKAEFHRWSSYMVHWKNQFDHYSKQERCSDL
Assay: biochemical
Type: biochemical, Male Rats (Sprague Dawley), brain

{"cpd.smiles": "c1ccc(CNc2c3c(nc4ccccc24)CCC3)cc1", "IC50": "39.6 µM"}

====

Biological target: Butyrylcholinesterase (BChE) (Equus caballus, UniProt P81908)
Construct: purchased Sigma c-7512
Sequence (P81908 whole entry): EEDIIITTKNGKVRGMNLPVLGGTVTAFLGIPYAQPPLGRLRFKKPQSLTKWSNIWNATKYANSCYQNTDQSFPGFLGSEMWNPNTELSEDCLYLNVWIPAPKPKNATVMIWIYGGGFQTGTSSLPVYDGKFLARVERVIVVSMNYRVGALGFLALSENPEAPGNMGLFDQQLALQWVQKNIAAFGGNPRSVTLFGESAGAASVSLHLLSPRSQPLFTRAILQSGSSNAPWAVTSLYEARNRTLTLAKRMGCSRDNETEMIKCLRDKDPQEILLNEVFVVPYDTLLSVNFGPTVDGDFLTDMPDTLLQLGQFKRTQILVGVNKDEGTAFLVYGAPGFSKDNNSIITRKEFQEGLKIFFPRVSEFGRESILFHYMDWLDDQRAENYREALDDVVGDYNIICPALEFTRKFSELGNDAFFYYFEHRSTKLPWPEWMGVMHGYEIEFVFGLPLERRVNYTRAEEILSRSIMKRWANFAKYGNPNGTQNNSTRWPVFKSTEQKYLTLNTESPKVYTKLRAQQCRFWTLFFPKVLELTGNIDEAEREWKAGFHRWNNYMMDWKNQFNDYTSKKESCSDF
Assay: biochemical
Conditions: Table 1; form BASE; ±SEM, n = 5; read-out: IC50 BChE

{"molecule": "COc1cccc2c1CCc1c-2nc2ccccc2c1N [Compound 4]", "IC50 / µM": 10.3}

====

Biological target: Butyrylcholinesterase (BChE) (Equus caballus)
Construct: purchased Sigma c-7512
Assay: biochemical
Conditions: Table 2; read-out: BChE IC50
pIC50: −log10 of the molar value.
recorded.metric: pIC50

{"cpd.smiles": "Nc1c2c(nc3cc(F)cc(F)c13)CCC2", "target.entity": "Butyrylcholinesterase (BChE) (Equus caballus)", "observed": 5.85}
{"cpd.smiles": "Cc1cccc2c(N)c3c(nc12)CCC3", "target.entity": "Butyrylcholinesterase (BChE) (Equus caballus)", "observed": 4.86}
{"cpd.smiles": "Nc1c2c(nc3cc(F)c(F)cc13)CCC2", "target.entity": "Butyrylcholinesterase (BChE) (Equus caballus)", "observed": 5.00}
{"cpd.smiles": "Nc1c2c(nc3cccc(F)c13)CCC2", "target.entity": "Butyrylcholinesterase (BChE) (Equus caballus)", "observed": 5.82}
{"cpd.smiles": "Nc1c2c(nc3cc(Cl)ccc13)CCC2", "target.entity": "Butyrylcholinesterase (BChE) (Equus caballus)", "observed": 6.89}
{"cpd.smiles": "Nc1c2c(nc3c(F)cc(F)cc13)CCC2", "target.entity": "Butyrylcholinesterase (BChE) (Equus caballus)", "observed": 5.06}
